target: h5-HT4b (Homo sapiens, UniProt Q13639); construct: expressed in transfected cells; host or cells: HEK 293 (clone 9), membrane preparation; test: 5HT4 antagonism: [3H]GR113808 binding to membranes of h5-HT4b-HEK 293 clone 9 cells; conditions: displacement of 0.1 nM [3H]GR113808, membranes of h5-HT4b-HEK 293 cells, 30 min at 25° C.; read-out: pIC50 (converted)
Sequence (Q13639 whole entry): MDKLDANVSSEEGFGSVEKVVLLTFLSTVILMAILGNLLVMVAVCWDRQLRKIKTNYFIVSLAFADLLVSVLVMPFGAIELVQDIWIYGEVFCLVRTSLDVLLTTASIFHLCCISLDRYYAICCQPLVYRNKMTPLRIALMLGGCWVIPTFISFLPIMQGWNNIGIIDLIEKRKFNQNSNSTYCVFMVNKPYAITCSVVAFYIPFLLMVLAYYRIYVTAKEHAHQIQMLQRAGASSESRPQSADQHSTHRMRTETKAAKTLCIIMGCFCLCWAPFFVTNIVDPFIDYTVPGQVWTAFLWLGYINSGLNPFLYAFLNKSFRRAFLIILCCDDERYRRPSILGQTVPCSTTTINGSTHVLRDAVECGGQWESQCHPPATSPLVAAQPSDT
# IC50 per record follows
Field format: number, assumed nM, no unit text.

NS(=O)(=O)CCCCN1CC[C@@H](CNC(=O)c2cc(Cl)c(Cl)c3c2OCCCO3)[C@H](O)C1 (relative stereo)	1.7
CNS(=O)(=O)CCCN1CCC(CNC(=O)c2cc(C)cc3c2OCCCO3)C(O)C1 (stereo not shown)	2.88
CNS(=O)(=O)CCCN1CC[C@@H](CNC(=O)c2cc(Cl)cc3c2OCCCO3)[C@H](O)C1 (relative stereo)	2.19
NS(=O)(=O)CCCN1CCC(CNC(=O)c2cc(Cl)cc3c2OCCCO3)C(O)C1 (stereo not shown)	3.02
COC1CN(CCCCS(N)(=O)=O)CCC1CNC(=O)c1cc(Cl)c(Cl)c2c1OCCCO2 (stereo not shown)	1.51

Per the records, this compound ( `NS(=O)(=O)CCCCN1CC[C@@H](CNC(=O)c2cc(Cl)cc3c2OCCCO3)[C@H](O)C1` ) has IC50 equal to 0.676

Form: compound = COc1ccc(C(=O)NCC2CCN(CCCCS(N)(=O)=O)CC2O)c2c1OCCCO2 (stereo not shown) ; IC50 = 158

====

Listing of entries alongside the reported % metabolised compound after 60 minutes.
experiment: Metabolic stability: incubation with liver microsomes and NADPH-generating system, LC-MS; format: in vitro ADME; conditions: compound 5 μM, microsomes 1 mg/ml, 37 degrees Celsius
// note: answer is a bare numeric in %

Field: example entries. Status: answers known.
COc1ccc(C(=O)NCC2CCN(CCCCS(N)(=O)=O)CC2O)c2c1OCCCO2 (stereo not shown)	0
COc1ccc(C(=O)NC[C@@H]2CCN(CCCCS(N)(=O)=O)C[C@H]2O)c2c1OCCCO2	0
Cc1cc2c(c(C(=O)NCC3CCN(CCCS(N)(=O)=O)CC3O)c1)OCCCO2 (stereo not shown)	14
COc1ccc(C(=O)NCC2CCN(CCCCS(N)(=O)=O)CC2OC)c2c1OCCO2 (stereo not shown)	9
NS(=O)(=O)CCCCN1CCC(CNC(=O)c2cc(F)cc3c2OCCCO3)C(O)C1 (stereo not shown)	2

`NS(=O)(=O)CCCCN1CC[C@@H](CNC(=O)c2cc(F)cc3c2OCCO3)[C@H](O)C1` yielded % metabolised compound after 60 minutes of 3

Reported % metabolised compound after 60 minutes of NS(=O)(=O)CCCN1CCC(CNC(=O)c2cc(Cl)cc3c2OCCCO3)C(O)C1 (stereo not shown) : 21

====

target: h5-HT4b (Homo sapiens); construct: expressed in transfected cells; host or cells: HEK 293 (clone 9), membrane preparation; test: 5HT4 antagonism: [3H]GR113808 binding to membranes of h5-HT4b-HEK 293 clone 9 cells; conditions: pIC50, displacement of 0.1 nM [3H]GR113808, membranes of h5-HT4b-HEK 293 cells, 30 min at 25° C.
quantity name: pIC50
Friendly reminder that pIC50 comes from taking -log10 of the concentration in mol/L.

Recorded result, `NS(=O)(=O)CCN1CC[C@@H](CNC(=O)c2cc(Cl)cc3c2OCCCO3)[C@H](O)C1` , pIC50: 8.27

====

target: h5-HT4b (Homo sapiens, UniProt Q13639); construct: expressed in transfected cells; host or cells: HEK 293 (clone 9), membrane preparation; assay: 5HT4 antagonism: [3H]GR113808 binding to membranes of h5-HT4b-HEK 293 clone 9 cells; settings: displacement of 0.1 nM [3H]GR113808, membranes of h5-HT4b-HEK 293 cells, 30 min at 25° C.; read-out: pIC50 (converted)
quantity name: log10(IC50) (log10 of the value in nM)
In our notation, the value equals log10 of IC50 in nM.

Here's what some known entries look like.
CS(=O)(=O)NC(=O)CCCN1CC[C@@H](CNC(=O)c2cc(Cl)cc3c2OCCCO3)[C@H](O)C1 [Compound 15]	1.55
O=C(NCC1CCN(CCCS(=O)(=O)Nc2ccccc2)CC1O)c1cc(Cl)cc2c1OCCCO2 (centres unmarked) [Compound 17]	0.25
COc1ccc(C(=O)NC[C@@H]2CCN(CCCCS(N)(=O)=O)C[C@H]2O)c2c1OCCCO2 [Compound 32]	0.56
Cc1ccc(C(=O)NCC2CCN(CCCS(=O)(=O)NC(C)C)CC2O)c2c1OCCCO2 (centres unmarked) [Compound 13]	0.53
Cc1ccc(C(=O)NCC2CCN(CCCS(N)(=O)=O)CC2O)c2c1OCCCO2 (centres unmarked) [Compound 18]	0.72
Cc1ccc(C(=O)NC[C@@H]2CCN(CCCC(=O)NS(C)(=O)=O)C[C@H]2O)c2c1OCCCO2 [Compound 27]	1.08
COC1CN(CCCCS(N)(=O)=O)CCC1CNC(=O)c1cc(Cl)cc2c1OCCCO2 (centres unmarked) [Compound 45]	0.14

Now consider the entry below.
Lab book: log10(IC50) of CC(C)NS(=O)(=O)CCCN1CCC(CNC(=O)c2cc(Cl)cc3c2OCCCO3)C(O)C1 (centres unmarked) [Compound 14] noted as 0.29

====

target: h5-HT4b (Homo sapiens, UniProt Q13639); construct: expressed in transfected cells; host or cells: HEK 293 (clone 9), membrane preparation; assay: 5HT4 antagonism: [3H]GR113808 binding to membranes of h5-HT4b-HEK 293 clone 9 cells; settings: displacement of 0.1 nM [3H]GR113808, membranes of h5-HT4b-HEK 293 cells, 30 min at 25° C.; read-out: pIC50 (converted)
# IC50 values compiled below
Give the value, in units of nM, as a plain number.

Cc1ccc(C(=O)NC[C@@H]2CCN(CCS(N)(=O)=O)C[C@H]2O)c2c1OCCCO2 [Compound 23]	5.75
CO[C@@H]1CN(CCCCS(N)(=O)=O)CC[C@H]1CNC(=O)c1cc(F)cc2c1OCCCO2 (relative stereo) [Compound 44]	3.72
COC1CN(CCCS(N)(=O)=O)CCC1CNC(=O)c1cc(F)cc2c1OCCCO2 (stereo not shown) [Compound 46]	4.17

Record Cc1cc2c(c(C(=O)NCC3(O)CCN(CCCCS(N)(=O)=O)CC3)c1)OCCCO2 [Compound 48] . Reported IC50: 20.9
